# System: HT29 colon
# measurement_protocol: NCI-60 one-dose screen, 48 h (100 = growth as untreated, 0 = no growth, -100 = all killed)
# assay_setup: 10 µM unless noted
Compounds without any hit were thinned out: in the full panel of roughly 83,000, 20% have a hit.
Criterion: growth strictly under 90%. Met: Satisfied. Not met: Not satisfied.

// below: answered molecules
INSERT INTO results (molecule, class_label) VALUES
  ('COc1ccc(C2CC(=O)c3c(nc4ccc(Cl)cc4c3N)C2)cc1 (centres undefined)', 'Not satisfied'),
  ('CC(=O)c1c(C)[nH]c(-c2nc3ccc(N4CCN(C)CC4)cc3[nH]2)c1-c1ccc(N(C)C)cc1', 'Satisfied'),
  ('O=C1c2cccc3cccc(c23)C(=O)N1CC#Cc1ccc2c3c(cccc13)C(=O)N(CCO)C2=O', 'Not satisfied'),
  ('COc1ccc(C(=O)/C=C/c2cc(-c3cc(OC)c(OC)c(OC)c3)n[nH]2)cc1OC', 'Satisfied'),
  ('COc1cc(-c2cc3ncccc3c3[nH]c(=O)c4cccnc4c23)cc(OC)c1OC', 'Satisfied'),
  ('Cc1ccc2[nH]cc(-c3nc(-c4cn(C)c5ncccc45)cs3)c2c1', 'Satisfied');

Dear colleague, could you confirm whether growth of `NC1(N)C=CC2=C(C=C1)C1(N)C3=C(C=CC(N)(N)C=C3)N2C2(N)C3=C(C=CC(N)(N)C=C3)N1C1=C2C=CC(N)(N)C=C1` falls below 90%? Thanks.
Not satisfied

Hello, is growth of the following molecule strictly smaller than 90%? `C=C(C)[C@@H]1CC[C@]2(C=NCCCNCCCCNCCCN)CC[C@]3(C)[C@H](CC[C@@H]4[C@@]5(C)CCCNC(C)(C)[C@@H]5CC[C@]43C)[C@@H]12`
Satisfied

---

# System: SN12C renal
# measurement_protocol: NCI-60 one-dose screen, 48 h
# assay_setup: 10 µM unless noted
# Procedure: Growth inhibition of the SN12C human tumor cell line is measured as a screen for anti-cancer activity. Cells are grown in 96 well plates and exposed to the test compound for 48 hours. Compounds are tested at a single concentration, which is 10^-5 M for most compounds. The reported endpoint is percent growth (GI% or GIPRCNT), where numbers from 0 - 100% represent growth inhibition, and numbers from -100% - 0 represent cell death. For example, a value of 40 represents 60% growth inhibition. […]
Compounds without any hit were thinned out: in the full panel of roughly 83,000, 20% have a hit. Activity calls are given as the source filed them. How the source made its calls: active means growth percent below 10; inactive means the rest.
Returns: one label drawn from yes (1) (active), no (0) (inactive)

Example results:
INSERT INTO measurements (compound, system, class_label) VALUES
  ('Oc1ccc(CCC2CCCC(CCc3ccc(OCCF)cc3)N2)cc1 (stereo not given)', 'SN12C renal', 'no (0)'),
  ('COc1cccc(-c2nn(-c3ccccc3)cc2-c2ccnc(NCCCNS(=O)(=O)c3ccc(Br)cc3)c2)c1', 'SN12C renal', 'no (0)'),
  ('Cn1cc(-c2nc(-c3cn(C)c4ncccc34)cs2)c2ccccc21', 'SN12C renal', 'no (0)');

Then this compound:
So what was the verdict on `COc1cccc(-c2nn(-c3ccccc3)cc2-c2ccnc(NCCCO)c2)c1` in this test?
no (0)

---

# Test system: SF-268 CNS
# measurement_protocol: NCI-60 one-dose screen, 48 h
# assay_setup: 10 µM unless noted
The panel holds about 83,000 compounds, 20% with a hit somewhere; the sample as a whole holds those more often. The source made the active and inactive calls. The calls were made as follows: active = growth percent below 10; inactive = the rest.
Your answer must be one of the following: TRUE for active, FALSE for inactive

INSERT INTO results (compound, class_label) VALUES
  ('COc1ccc2nc(-c3c(-c4ccccc4)nc4ncccn34)[nH]c2c1', 'FALSE'),
  ('CCc1cccc(CC)c1NC(=O)c1sc2nc3c(cc2c1N)CCCC3', 'FALSE');

Shift focus to the following entry.
Recorded test call requested for Cc1c(C)c2c(c(C)c1NC(=O)CCCCCCC(=O)O)CCC(C)(CCCC(C)CCCC(C)CCCC(C)C)O2 (configuration not stated)
FALSE

---

# System: HCT-15 colon
# measurement_protocol: NCI-60 one-dose screen, 48 h (100 = growth as untreated, 0 = no growth, -100 = all killed)
# assay_setup: 10 µM unless noted
Compounds without any hit were thinned out: in the full panel of roughly 83,000, 20% have a hit. Active and inactive are the calls of the source. The calls were made as follows: active = growth percent below 10; inactive = the rest.
Form field: growth (one value per entry).

Answered examples (3):
INSERT INTO results (compound, val) VALUES
  ('CC(C)=CCC/C(C)=C/CC/C(C)=C/CSC[C@H](NC(=O)CCCCCN1CCN(C)CC1)C(=O)NC1CCCCCC1', '0.0874% (active)'),
  ('CN1CCN(c2nc(-c3cccc4ccccc34)nc3sc4c(c23)CCCCCC4)CC1', '91.8% (inactive)'),
  ('c1ccc2[nH]c(-c3ccc(Nc4nc(N5CCCCC5)nc(N5CCOCC5)n4)cc3)nc2c1', '-33.9% (active)');

Give a short answer stating reported growth for `COC(=O)[C@]12CC[C@@H](C)[C@H](C)[C@@H]1C1=CC[C@@H]3[C@@]4(C)C[C@@H](O)[C@H](O)[C@@](C)(CO)C4=CC[C@@]3(C)[C@]1(C)CC2` .
-60.8% (active)

Consider the compound `CC(=O)Oc1ccccc1C(=O)/C=C/c1cccc([N+](=O)[O-])c1` . State its measured growth.
54.9% (inactive)

Supply growth value. Item: `Cc1cccc(C)c1NC(=O)CSC(=S)N1CCCCC1`
105% (inactive)

Indicate the recorded growth value for this compound: Cc1csc(-c2ccc3c(c2)COC3(CCCN(C)C)c2ccc(F)cc2)c1 (stereo not given)
14.4% (inactive)

Tell me its growth given `Cc1cc(Cl)nc(N(CCNc2ccnc3cc(Cl)ccc23)Cc2ccco2)n1` as the entry.
35.7% (inactive)

Specify growth for `Cc1nc([P+](c2ccccc2)(c2ccccc2)c2ccccc2)c(Sc2sc(-c3ccccc3)nc2[P+](c2ccccc2)(c2ccccc2)c2ccccc2)o1` and stop.
30.2% (inactive)

Specify measured growth for `CSc1ccc(N(C)c2nc(C)nc3c2CCC3)cc1` .
7.62% (active)

---

# Tested on: MDA-MB-435 melanoma
# measurement_protocol: NCI-60 one-dose screen, 48 h
# assay_setup: 10 µM unless noted
About 83,000 compounds went through this panel and 20% of them were active in at least one assay; those are over-represented in the sample as a whole. Activity calls are given as the source filed them. Rule for the calls: active = growth percent below 10; inactive = the rest.
Thanks in advance; please answer with one of these: yes (active), no (inactive)

INSERT INTO measurements (compound, class_label) VALUES
  ('C=C1C(=O)O[C@H]2[C@H]1CC/C(COC(=O)NCc1c[nH]c3ccccc13)=C\CC[C@@]1(C)O[C@@H]21', 'no'),
  ('Nc1ccc(Br)cn1', 'no'),
  ('CC1(C)C(=O)/C(=C\c2ccccn2)C[C@]2(C)[C@H]3CC[C@@H]4[C@@H](C(=O)/C=C/c5ccccn5)CC[C@@]4(C)[C@]3(C)CC[C@@H]12', 'yes'),
  ('NC1=NN=C2N(N)C(=O)c3cnn(-c4ccccc4)c3N2c2nc(-c3ccccc3)cc(-c3ccccc3)c21', 'no'),
  ('Cn1cc(-c2csc(-c3cn(C(=O)OC(C)(C)C)c4ccccc34)n2)c2cccnc21', 'no'),
  ('OCC1OC(n2cnc3c(Cl)ncnc32)CC1O (stereo not given)', 'no');

// outcome(item) with item = `CC/C=C\C[C@H]1CC=C2C(=O)C=C[C@@H]2CC=CCCCC(=O)O[C@@H](CCCCC)CC=C2C(=O)C=C[C@@H]2CC=CCCCC(=O)O[C@@H](CCCCC)CC=C2C(=O)C=C[C@@H]2CC=CCCCC(=O)O[C@@H](CCCCC)CC=C2C(=O)C=C[C@@H]2CC=CCCCC(=O)O1`
yes

Per the records of this test, what outcome belongs to O=C1CN(c2ccccc2)C(=O)C1C(=O)Nc1ccc(Cl)c(Cl)c1 (stereo not given) ?
yes

Would you mind telling me which call this test gave `COc1cc2nc(Cl)nc(Nc3cccc(C(=O)/C=C/c4ccc(Cl)cc4)c3)c2cc1OC` ?
no

Could you check what this test reported for `NC(N)=N/N=C/c1ccc(-c2ccc(-c3ccc(Cl)cn3)s2)cc1` ?
no

Hey, what did the test say about `COC(=O)[C@]12CC[C@@H](C)[C@H](C)[C@@H]1C1=CC[C@@H]3[C@@]4(C)C=C(O)C(=O)C(C)=C4CC[C@@]3(C)[C@]1(C)CC2` ?
no

Tell me the assay call for `O=C1CCCC=CC[C@H]2C=C(Cl)C(=O)C2=CC[C@H](CCCCC(F)(F)F)OC(=O)CCCC=CC[C@H]2C=C(Cl)C(=O)C2=CC[C@H](CCCCC(F)(F)F)OC(=O)CCCC=CC[C@H]2C=C(Cl)C(=O)C2=CC[C@H](CCCCC(F)(F)F)O1` please.
no

Which outcome was assigned to `Cc1csc(Nc2nc(-c3ccc(Cl)cc3)nc(C(Cl)(Cl)Cl)n2)n1` in this test?
no

Could you check what this test reported for `CCCNc1nc(N(C)O)nc(N(C)O)n1` ?
no

State the result this test recorded for `Brc1ccc2[nH]cc(-c3nc(-c4c[nH]c5ncccc45)cs3)c2c1` .
no

Assay result, entry `N=C(N)c1ccc(S(N)(=O)=O)cc1` — outcome?
no

Hey, what did the test say about `O=C1C(=O)N(CCCCn2cc(-c3ccccc3)nn2)c2ccccc21` ?
no

Called result for CC(=O)NC1=C(C#N)C(c2ccccc2Cl)c2c(ccc3ccccc23)O1 (stereo not given)
yes

Which outcome did this test record for the compound `CCCCC[C@H]1C/C=C2/C(=O)C=C[C@@H]2C/C=C\CCCC(=O)O[C@@H](CCCCC)C/C=C2/C(=O)C=C[C@@H]2C/C=C\CCCC(=O)O1` ?
yes

Hi, sorry to bother you, what did the test record for `c1ccc(-c2nc(Nc3ccc(-c4nc5ccccc5[nH]4)cc3)nc(N3CCOCC3)n2)cc1` ?
yes

For this compound, state the assay outcome: `CC/C(=N/NC(N)=O)c1ccccc1`
no

Dear colleague, could you share the recorded outcome for `COC(=O)[C@]12CC[C@@H](C)[C@H](C)[C@@H]1C1=CC[C@@H]3[C@@]4(C)C(c5ncon5)=C[C@@](C)(CO)C4=CC[C@@]3(C)[C@]1(C)CC2` when you have a moment?
yes

Dear colleague, could you share the recorded outcome for CCCCC/C(=C\c1ccccc1)C1OC(C)C(C)O1 (stereo not given) when you have a moment?
no
